Where do these numbers come from? They come from PubChem BioAssay (NCATS).

System: MCC-13
TEST DETAILS: qHTS assay to identify novel small-molecules to repurpose for Merkel cell carcinoma treatment (AID 1296009); further: nearly all actives have a fitted effect of over 60% in size
TEST CONDITIONS: MCC and control cell lines, CellTiter-Glo viability, 72 h; series mostly up to 46 µM
Inconclusive results are not listed. Active and inactive are the calls of the source. The call rests on the fitted dose curve; in most records, active means well fitted inhibition curve with a large enough effect; inconclusive means small, poorly fitted or top-dose-only effect; inactive means flat fitted curve, though single readings scatter.
Classes used: active, inactive

SAMPLE SMILES | TARGET ENTITY | CLASS NAME
O=C(NCCCNc1nc(Nc2cccc(NC(=O)N3CCCC3)c2)ncc1I)c1cccs1 | MCC-13 | active
CC(=O)SC[C@@H](C)C(=O)N1CCC[C@H]1C(=O)N[C@@H](Cc1ccccc1)C(=O)O | MCC-13 | inactive
COc1ccc(-n2nc(C(N)=O)c3c2C(=O)N(c2ccc(N4CCCCC4=O)cc2)CC3)cc1 | MCC-13 | inactive
CC(C)c1cnn2c(NCc3ccccc3)cc(N[C@@H](CO)[C@H](O)CO)nc12 | MCC-13 | active
C=CC(=O)Nc1cc2c(Nc3ccc(F)c(Cl)c3)ncnc2cc1C#CC(C)(C)N1CCN(C)CC1 | MCC-13 | active
c1ccc2c(CCNc3ccc(Nc4ccncc4)cc3)c[nH]c2c1 | MCC-13 | active
CC(C)c1ccc(Cn2ccc3c4c(N)nc(NC5CC5)nc4ccc32)cc1 | MCC-13 | active
CC(C)(O)CCc1ccc(OCc2cc(-c3cccc(OC(F)F)c3)c3ncccc3c2)cc1 | MCC-13 | inactive
CC(C)Nc1cc(C(F)(F)F)cc2nc(NC(=O)c3cccnc3)nn12 | MCC-13 | inactive
